# System: Kappa-type opioid receptor (Homo sapiens)
# Sequence (P41145 whole entry): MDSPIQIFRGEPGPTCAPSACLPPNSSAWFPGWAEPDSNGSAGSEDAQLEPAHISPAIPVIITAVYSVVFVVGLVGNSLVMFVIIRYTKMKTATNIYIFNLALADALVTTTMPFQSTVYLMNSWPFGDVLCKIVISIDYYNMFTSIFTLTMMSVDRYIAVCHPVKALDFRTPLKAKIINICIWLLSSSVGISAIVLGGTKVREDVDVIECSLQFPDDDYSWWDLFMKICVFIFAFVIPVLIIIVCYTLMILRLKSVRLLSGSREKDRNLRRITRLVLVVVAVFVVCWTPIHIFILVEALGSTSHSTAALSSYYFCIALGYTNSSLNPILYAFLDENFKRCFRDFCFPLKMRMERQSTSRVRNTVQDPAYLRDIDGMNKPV
# Format: functional
Reported endpoint: EC50

Any idea what its EC50 is? The compound is COc1cc(Cl)c(C)cc1NC(=O)CSc1nnc(-c2ccccn2)n1Cc1ccco1
20.3 µM

---

Form field: EC50 (one value per entry).
# System: Luciferin 4-monooxygenase (Photinus pyralis, UniProt P08659)
# Sequence (P08659 whole entry): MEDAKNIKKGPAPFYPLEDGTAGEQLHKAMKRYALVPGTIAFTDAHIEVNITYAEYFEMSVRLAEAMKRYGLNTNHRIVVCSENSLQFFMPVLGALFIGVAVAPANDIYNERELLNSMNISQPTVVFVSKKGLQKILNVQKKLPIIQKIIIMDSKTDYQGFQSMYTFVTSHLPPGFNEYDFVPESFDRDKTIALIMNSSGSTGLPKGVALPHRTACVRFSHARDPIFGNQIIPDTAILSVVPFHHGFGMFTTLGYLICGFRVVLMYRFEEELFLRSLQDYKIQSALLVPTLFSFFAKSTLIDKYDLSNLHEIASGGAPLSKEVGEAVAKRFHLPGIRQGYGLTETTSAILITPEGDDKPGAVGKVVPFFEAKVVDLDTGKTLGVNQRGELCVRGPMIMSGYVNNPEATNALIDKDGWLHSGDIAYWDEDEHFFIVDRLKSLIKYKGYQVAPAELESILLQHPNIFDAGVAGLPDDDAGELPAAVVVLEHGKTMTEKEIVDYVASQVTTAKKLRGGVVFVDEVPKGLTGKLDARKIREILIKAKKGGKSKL
# Assay explanation: firefly luciferase enzyme inhibitors, dose response, biochemical, luminescence (AID 1891)
Active and inactive are the calls of the source. Cut-off read from the data, not from the text of the source: actives have a measured EC50 and inactives only a lower limit.

Any idea what its EC50 is? The molecule is O=C(CSc1nnc(C2CC2)n1-c1ccccc1)Nc1ccc(N2CCOCC2)cc1
> 112 µM (not active)

Any idea what its EC50 is? The molecule is Clc1ccc(/C=C/c2nc3ccccc3[nH]2)c(Cl)c1
0.519 µM (active)
